Ref: the FLAb antibody collection (doi:10.7554/elife.23156)

B1: scFv; the commonest letter at each place (parent)
chain 1: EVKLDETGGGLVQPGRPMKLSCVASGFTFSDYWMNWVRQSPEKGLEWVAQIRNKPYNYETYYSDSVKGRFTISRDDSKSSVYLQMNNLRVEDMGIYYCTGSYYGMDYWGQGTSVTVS
chain 2: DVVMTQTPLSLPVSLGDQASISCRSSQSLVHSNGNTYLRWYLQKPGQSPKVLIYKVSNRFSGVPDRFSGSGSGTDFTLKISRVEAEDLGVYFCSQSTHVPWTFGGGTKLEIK

variants of: B1; test: yeast surface expression (ratio to wild type); higher = more expressed; settings: format: scFv 4-4-20, heavy + light
Hi, to clarify the labels: Yes covers yeast surface expression from 0.7 upward, No covers anything below 0.7.

Some solved entries appear below for comparison.
Assess whether reported yeast surface expression for chain 1 F29Q M34W sits at 0.7 or higher.
Yes

Assess whether reported yeast surface expression for chain 1 Y103L D106I sits at 0.7 or higher.
Yes

Assess whether reported yeast surface expression for chain 1 D31A W33L sits at 0.7 or higher.
No

Assess whether reported yeast surface expression for chain 1 F29D V37A sits at 0.7 or higher.
Yes

Assess whether reported yeast surface expression for chain 1 G104L Y107E sits at 0.7 or higher.
No

Continuing:
Assess whether reported yeast surface expression for chain 1 T28W F29R sits at 0.7 or higher.
No
